PROTOCOL DETAILS: recombinant barcode read abundance after kanamycin selection (control-corrected) (log10(CPM+1)); higher = more efficient recombination; sequences stand for … in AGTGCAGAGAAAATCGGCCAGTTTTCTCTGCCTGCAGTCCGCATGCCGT…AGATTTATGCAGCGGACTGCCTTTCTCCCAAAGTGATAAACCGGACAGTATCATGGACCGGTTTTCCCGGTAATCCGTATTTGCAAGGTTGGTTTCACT; site = the 11-nt target
MEASUREMENT TYPE: recombinant barcode read abundance (log10)
// no unit string in output, number only

sequence_data="AGCGGGCCTTGGGTTCTAACCTGTTGCCT (site AGCGGACCTAG)" result=0.382
sequence_data="GACTCCGCTTGGGTTCTAACCTGTTGCCT (site TACTCCGCTAG)" result=0.692

# recombinant barcode read abundance (log10) (sequence: TTGAGGCCTTGGGTTCTAACCTGTTGCCT (site ATGAGGCCTAG) ) is 0.059

recombinant barcode read abundance (log10) reported for this sequence CATAGATCTTGGGTTCTAACCTGTTGCTT (site CATAGATCTAA) : 0.119

sequence AATGGATCTTGGGTTCTAACCTGTTGCCT (site AATGAATCTAG) , recombinant barcode read abundance (log10) observed: 0.0825

###

Documented recombinant UMI read abundance (log10) across a set of sequences
PROTOCOL DETAILS: recombinant UMI read abundance after kanamycin selection (control-corrected) (log10(CPM+1)); higher = more efficient recombination; extreme values may be limits of the assay; sequences stand for … in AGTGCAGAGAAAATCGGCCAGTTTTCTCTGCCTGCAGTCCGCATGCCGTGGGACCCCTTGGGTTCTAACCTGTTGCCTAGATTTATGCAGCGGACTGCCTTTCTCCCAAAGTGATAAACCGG…AGGTTGGTTTCACT; site = the 11-nt donor
Just the number, please.

The sequence ACAGTAGCATGGACCGGTTTTCCCGGTAATCCGTATTTGTA (site ACAGTATCTTG) showed recombinant UMI read abundance (log10) equal to 1.49

Value of recombinant UMI read abundance (log10) reported for the sequence CTATTCCCATGGACCGGTTTTCCCGGTAATCCGTATTTGCT (site CTATTCCCTAG) is 0.845

Quick note, recombinant UMI read abundance (log10) for TGGCCGGCATGGACCGGTTTTCCCGGTAATCCGTATTTGAC (site TGGCCGGCTGG) landed at 0

Note to self: recombinant UMI read abundance (log10) recorded for AAAGTGTCATGGACCGGTTTTCCCGGTAATCCGTATTTGAC (site AACGTGTCTGT) was 0

Entry CCTAATGCATGGACCGGTTTTCCCGGTAATCCGTATTTGGC (site CCTAATTCTGC) ; recombinant UMI read abundance (log10) = 0

// CTAGTAACATGGACCGGTTTTCCCGGTAATCCGTATTTGGA (site CTAGTAACTTC) : recombinant UMI read abundance (log10) value = 1.98

###

PROTOCOL DETAILS: recombinant UMI read abundance after kanamycin selection (control-corrected) (log10(CPM+1)); higher = more efficient recombination; extreme values may be limits of the assay; sequences stand for … in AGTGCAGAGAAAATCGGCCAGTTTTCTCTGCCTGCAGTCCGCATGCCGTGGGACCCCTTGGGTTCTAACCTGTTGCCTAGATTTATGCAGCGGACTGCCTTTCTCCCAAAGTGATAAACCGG…AGGTTGGTTTCACT; site = the 11-nt donor
Measured recombinant UMI read abundance (log10) accompanies every entry in the list below.
Enter the number alone.

sequence_data="ACTATAACATGGACCGGTTTTCCCGGTAATCCGTATTTGAG (site ACTACAACTCT)" result=0.348

Item: CCTAAAGCATGGACCGGTTTTCCCGGTAATCCGTATTTGAG (site CCTAAAGCTTT) | recombinant UMI read abundance (log10): 0

For this sequence ( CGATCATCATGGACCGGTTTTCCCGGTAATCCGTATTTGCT (site CTATCATCTAC) ), measured recombinant UMI read abundance (log10) is 0.00862

Given item ATAGTATCATGGACCGGTTTTCCCGGTAATCCGTATTTGCC (site ATAGTATCTGG) , the value recorded as its recombinant UMI read abundance (log10) is 3.34

GET /value?item= ACACCAACATGGACCGGTTTTCCCGGTAATCCGTATTTGTC (site ACACCAACTGA) &field=recombinant UMI read abundance (log10) returns 1.62
